# systemTested: PD-1/PD-L1 (Homo sapiens (Human))
# Sequence (Q9NZQ7 18-239): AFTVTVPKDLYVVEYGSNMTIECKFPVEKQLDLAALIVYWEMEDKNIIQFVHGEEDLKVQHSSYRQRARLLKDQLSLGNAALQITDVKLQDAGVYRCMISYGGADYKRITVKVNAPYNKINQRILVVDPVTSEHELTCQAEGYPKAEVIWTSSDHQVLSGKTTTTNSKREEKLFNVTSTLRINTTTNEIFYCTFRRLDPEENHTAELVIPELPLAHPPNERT
# assay: PD-1/PD-L1 Homogenous Time-Resolved Fluorescence (HTRF) binding assay
# experimentalSetup: PD-1-Ig (20 nM final)/PD-L1-His (10 nM final) binding assay
Attribute: pIC50
Conceptually, pIC50 converts a concentration in mol/L into minus its log10.

Sample records with pIC50:
molecule	pIC50
COC(=O)CCSc1cncc(COc2cc(OCc3cccc(-c4ccc5c(c4)OCCO5)c3C)c(Cl)cc2CN[C@@](C)(CO)C(=O)O)c1 [Example 1006]	8.96
Cc1c(COc2cc(OCCCN(C)C)c(CN[C@@](C)(CO)C(=O)O)cc2Cl)cccc1-c1ccc2c(c1)OCCO2 [Example 2001]	8.02
Cc1cnc(COc2cc(OCc3cccc(-c4ccc5c(c4)OCCO5)c3C)c(Cl)cc2CN[C@H](CO)C(=O)O)cn1 [Example 1001]	8.35
Cc1c(COc2cc(OC[C@@H](C)CO)c(CN[C@](C)(CO)C(=O)O)cc2Cl)cccc1-c1ccc2c(c1)OCCO2 [Example 1035]	8.47
Cc1c(COc2cc(OCC3CCCCC3)c(CNC(C)(CO)CO)cc2Cl)cccc1-c1ccc2c(c1)OCCO2 [Example 1041]	7.30
Cc1c(COc2cc(OCCCCN3CC[C@@H](O)C3)c(CN[C@](C)(CO)C(=O)O)cc2Cl)cccc1-c1ccc2c(c1)OCCO2 [Example 1026]	8.66

In: What value of measured pIC50 is listed for Cc1c(COc2cc(OCCN3CCCC(O)(C(F)(F)F)C3)c(CN[C@](C)(CO)C(=O)O)cc2Cl)cccc1-c1ccc2c(c1)OCCO2 (stereo partly shown) [Example 1057] ?
Out: 8.21

In: Cc1c(COc2cc(OCCCC(F)(F)F)c(CN[C@](C)(CO)C(=O)O)cc2Cl)cccc1-c1ccc2c(c1)OCCO2 [Example 1029] , same question.
Out: 8.92

In: Cc1c(COc2cc(OCC3CCCN(C)C3)c(CN3CCCC[C@H]3C(=O)O)cc2Cl)cccc1-c1ccc2c(c1)OCCO2 (stereo partly shown) [Example 2012] , same question.
Out: 7.55

In: Cc1c(COc2cc(OC[C@H](C)CO)c(CN[C@](C)(CO)C(=O)O)cc2Cl)cccc1-c1ccc2c(c1)OCCO2 [Example 1032] , same question.
Out: 8.36

In: Cc1c(COc2cc(OCc3cncc(C(=O)NCCCN(C)C)c3)c(CN3CC[C@H](O)C3)cc2Cl)cccc1-c1ccc2c(c1)OCCO2 [Example 2007] , same question.
Out: 8.47

In: Cc1c(COc2cc(OCc3cnn(-c4ccccn4)c3)c(CN[C@@](C)(CO)C(=O)O)cc2Cl)cccc1-c1ccc2c(c1)OCCO2 [Example 1011] , same question.
Out: 7.96

In: Cc1c(COc2cc(OCC3CCC3)c(CN3CCCC[C@H]3C(=O)O)cc2Cl)cccc1-c1ccc2c(c1)OCCO2 [Example 1050] , same question.
Out: 7.22

In: Cc1c(COc2cc(OCc3ccnc(NC(=O)N4CCOCC4)c3)c(CN[C@@](C)(CO)C(=O)O)cc2Cl)cccc1-c1ccc2c(c1)OCCO2 [Example 1004] , same question.
Out: 7.76

In: Cc1c(COc2cc(OC[C@@H](C)CO)c(CNC(C)(CO)CO)cc2Cl)cccc1-c1ccc2c(c1)OCCO2 [Example 1036] , same question.
Out: 8.34

In: COC(=O)CCSc1cncc(COc2cc(OCc3cccc(-c4ccc5c(c4)OCCO5)c3C)c(Cl)cc2CN2CCCC[C@H]2C(=O)O)c1 [Example 1007] , same question.
Out: 7.56

In: Cc1c(COc2cc(OCC3CCCN(C)C3)c(CN[C@@H](CO)C(=O)O)cc2Cl)cccc1-c1ccc2c(c1)OCCO2 (single isomer, unassigned) [Example 2005] , same question.
Out: 8.72

In: Cc1c(COc2cc(OCc3cccc(-c4nc(CC(=O)O)cs4)c3)c(CN[C@@](C)(CO)C(=O)O)cc2Cl)cccc1-c1ccc2c(c1)OCCO2 [Example 1013] , same question.
Out: 7.14

In: Cc1c(COc2cc(OCCCN(C)C)c(CN[C@@H](CO)C(=O)O)cc2Cl)cccc1-c1ccc2c(c1)OCCO2 [Example 2002] , same question.
Out: 8.19

// data source = patent US20250230153A1
